# SYSTEM_TESTED: ENPP3 (Homo sapiens, UniProt O14638)
# Sequence (O14638 whole entry, species assumed): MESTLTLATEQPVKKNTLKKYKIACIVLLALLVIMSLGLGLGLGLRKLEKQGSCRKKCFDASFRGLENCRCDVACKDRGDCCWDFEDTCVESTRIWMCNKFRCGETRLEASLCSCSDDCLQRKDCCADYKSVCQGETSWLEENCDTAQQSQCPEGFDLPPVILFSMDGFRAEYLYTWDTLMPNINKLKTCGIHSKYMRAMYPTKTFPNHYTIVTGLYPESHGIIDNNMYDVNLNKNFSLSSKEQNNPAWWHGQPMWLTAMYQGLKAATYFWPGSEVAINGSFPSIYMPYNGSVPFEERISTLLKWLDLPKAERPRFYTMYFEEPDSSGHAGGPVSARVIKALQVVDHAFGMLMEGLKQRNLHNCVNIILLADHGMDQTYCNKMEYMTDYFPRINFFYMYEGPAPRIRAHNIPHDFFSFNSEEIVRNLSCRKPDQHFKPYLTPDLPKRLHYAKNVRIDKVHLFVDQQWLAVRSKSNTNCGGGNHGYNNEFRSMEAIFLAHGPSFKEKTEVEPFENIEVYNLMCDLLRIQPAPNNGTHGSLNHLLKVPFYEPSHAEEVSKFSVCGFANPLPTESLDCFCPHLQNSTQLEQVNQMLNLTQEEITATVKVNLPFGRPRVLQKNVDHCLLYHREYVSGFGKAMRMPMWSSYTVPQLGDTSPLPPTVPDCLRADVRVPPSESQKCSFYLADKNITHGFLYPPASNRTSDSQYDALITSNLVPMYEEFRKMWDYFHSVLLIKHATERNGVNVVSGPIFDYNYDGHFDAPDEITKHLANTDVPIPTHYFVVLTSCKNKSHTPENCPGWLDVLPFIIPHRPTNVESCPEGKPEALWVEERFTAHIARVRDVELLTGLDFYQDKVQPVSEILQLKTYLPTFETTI
# TEST_DESCRIPTION: ENPP3 Km ATP assay
# Format: biochemical
# REPORTED_CONDITIONS: ATP at Km
MEASURED_ENDPOINT: IC50

SMILES_INPUT | RECORDED_MEASUREMENT
Cn1ncc2c(NCc3ccc(S(N)(=O)=O)cc3)cc(N3CCCC3)nc21 | 0.1 to 1 µM
Cc1csc2c(N3CCC(NC(=O)CCc4ccncc4F)CC3)ncnc12 | > 20 µM
NS(=O)(=O)c1ccc(CNc2nc(-c3ccccn3)nc3scc(-c4cccnc4)c23)cc1 | 1 to 20 µM
CN(C)c1nc(NCc2ccc(S(N)(=O)=O)cc2)c2cnn(C)c2n1 | 0.1 to 1 µM

====

Parameter IC50: see the listing below.
# SYSTEM_TESTED: human ENPP1 (Homo sapiens)
# Construct: made in house
# Sequence (P22413 whole entry): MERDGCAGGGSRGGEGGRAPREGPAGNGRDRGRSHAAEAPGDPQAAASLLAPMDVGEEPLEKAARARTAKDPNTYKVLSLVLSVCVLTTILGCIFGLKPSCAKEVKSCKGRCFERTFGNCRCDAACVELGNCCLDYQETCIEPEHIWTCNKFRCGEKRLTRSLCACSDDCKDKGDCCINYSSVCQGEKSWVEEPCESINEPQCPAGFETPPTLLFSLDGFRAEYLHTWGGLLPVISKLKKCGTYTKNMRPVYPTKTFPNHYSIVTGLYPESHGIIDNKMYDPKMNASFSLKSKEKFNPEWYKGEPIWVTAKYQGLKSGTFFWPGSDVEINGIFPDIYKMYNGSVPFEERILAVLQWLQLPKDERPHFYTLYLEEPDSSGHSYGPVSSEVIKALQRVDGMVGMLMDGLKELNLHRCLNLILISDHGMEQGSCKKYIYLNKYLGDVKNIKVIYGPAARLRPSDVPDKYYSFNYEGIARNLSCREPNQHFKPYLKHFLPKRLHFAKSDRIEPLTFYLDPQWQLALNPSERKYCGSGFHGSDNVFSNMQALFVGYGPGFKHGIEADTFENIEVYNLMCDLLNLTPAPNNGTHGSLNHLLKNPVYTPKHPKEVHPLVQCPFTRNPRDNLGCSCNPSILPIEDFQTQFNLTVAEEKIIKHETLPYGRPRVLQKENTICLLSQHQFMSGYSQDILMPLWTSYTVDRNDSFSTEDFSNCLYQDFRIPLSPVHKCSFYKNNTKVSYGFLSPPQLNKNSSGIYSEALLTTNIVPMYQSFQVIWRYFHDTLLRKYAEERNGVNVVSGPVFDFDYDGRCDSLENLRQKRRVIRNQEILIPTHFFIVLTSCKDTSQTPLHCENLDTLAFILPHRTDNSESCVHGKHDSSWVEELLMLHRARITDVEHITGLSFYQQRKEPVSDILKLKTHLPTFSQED
# TEST_DESCRIPTION: ENPP1 assay with ATP substrate (Transcreener AMP2/GMP2 TR-FRET)
# Format: biochemical
# REPORTED_CONDITIONS: 1 hour at room temperature

SMILES_INPUT | SYSTEM_TESTED | IC50
Cn1nc(Br)c2c(NCc3ccc(S(N)(=O)=O)cc3)nc(N3CCCCC3)nc21 | human ENPP1 (Homo sapiens) | 1 to 20 µM
Cc1csc2c(N3CCC(OCCCc4ccc(F)cc4)CC3)ncnc12 | human ENPP1 (Homo sapiens) | > 20 µM
NS(=O)(=O)c1ccc(CNc2nc(-c3ccccn3)nc3scc(-c4ccccc4)c23)cc1 | human ENPP1 (Homo sapiens) | < 0.1 µM
NS(=O)(=O)c1ccc(CNc2ncnc3scc(C4=CCCCC4)c23)cc1 | human ENPP1 (Homo sapiens) | > 20 µM
Cc1csc2c(N3CCC(NCCCc4cccc(C(F)(F)F)c4)CC3)ncnc12 | human ENPP1 (Homo sapiens) | 0.1 to 1 µM
COc1nc(N2CCC(NCCCc3cnccc3C)CC2)c2scc(C)c2n1 | human ENPP1 (Homo sapiens) | 0.1 to 1 µM
NS(=O)(=O)c1ccc(CNc2nc(-c3ccccn3)nc3scc(-c4ccccc4)c23)s1 | human ENPP1 (Homo sapiens) | < 0.1 µM
c1ccc(-c2csc3nc(-c4ccccn4)nc(NCc4cccs4)c23)cc1 | human ENPP1 (Homo sapiens) | 0.1 to 1 µM
Cn1ncc2c(NCc3ccc(S(N)(=O)=O)cc3)ncnc21 | human ENPP1 (Homo sapiens) | < 0.1 µM

====

# SYSTEM_TESTED: UniProt O14638
# TEST_DESCRIPTION: ENPP3 Km ATP assay
# Format: biochemical
# REPORTED_CONDITIONS: ATP at Km
Parameter IC50: see the listing below.
MEASURED_ENDPOINT: IC50

COMPOUND | RECORDED_MEASUREMENT
Cc1nc(NCc2ccc(S(N)(=O)=O)cc2)c2c(-c3ccccc3)csc2n1 | < 0.1 µM
NS(=O)(=O)c1ccc(CNc2ncnc3scc(C4=CCCCC4)c23)cc1 | 0.1 to 1 µM
CCNc1nc(NCc2ccc(S(N)(=O)=O)cn2)c2cnn(C)c2n1 | 1 to 20 µM
NS(=O)(=O)c1ccc(CNc2nc(N3CCCCC3)nc3scc(-c4ccccc4)c23)cc1 | 0.1 to 1 µM
Cn1ncc2c(NCc3ccc(S(N)(=O)=O)nc3)ccnc21 | 0.1 to 1 µM
NS(=O)(=O)c1ccc(CNc2nc(NCCCO)nc3scc(-c4ccccc4)c23)cc1 | < 0.1 µM
NS(=O)(=O)c1ccc(CNc2nc(-c3ccccn3)nc3scc(-c4ccccc4)c23)s1 | 0.1 to 1 µM
COc1cc(CCCNC2CCN(c3ncnc4c(C)csc34)CC2)ccn1 | > 20 µM
Clc1ccc(CNc2nc(-c3ccccn3)nc3scc(-c4ccccc4)c23)cc1 | > 20 µM
CCc1nc(NCc2ccc(S(N)(=O)=O)cc2)c2cnn(C)c2n1 | 0.1 to 1 µM
Cn1ncc2c(NCc3ccc(S(N)(=O)=O)cc3)cc(Cl)nc21 | < 0.1 µM
CCCCNc1cc(NCc2ccc(S(N)(=O)=O)cc2)c2cnn(C)c2n1 | 1 to 20 µM
Cc1csc2c(N3CCC(OCCCc4ccc(F)cc4)CC3)ncnc12 | > 20 µM
Cn1nc(-c2ccccc2)c2c(NCc3ccc(S(N)(=O)=O)cc3)nc(N3CCCCC3)nc21 | 0.1 to 1 µM
Cc1nc(NCc2ccc(S(N)(=O)=O)cc2)c2c(C3CCCC3)nn(C)c2n1 | 1 to 20 µM
CC(C)Nc1cc(NCc2ccc(S(N)(=O)=O)cc2)c2cnn(C)c2n1 | 1 to 20 µM
NS(=O)(=O)N1CCC(CNc2ncnc3scc(-c4ccccc4)c23)CC1 | 1 to 20 µM
Cn1ncc2c(NCc3ccc(S(N)(=O)=O)cc3)nc(C(F)(F)F)nc21 | 1 to 20 µM
Cc1csc2c(N3CCC(NCCCc4ccncc4F)CC3)ncnc12 | > 20 µM
Cn1ncc2c(NCc3ccc(S(N)(=O)=O)c(Cl)c3)ncnc21 | 1 to 20 µM
Cc1csc2c(N3CCC(NCCCc4ccccc4)CC3)ncnc12 | > 20 µM
O=C(CCc1ccc(F)cc1)NC1CCN(c2ncnc3c(I)csc23)CC1 | > 20 µM
Cc1csc2c(N3CCC(NCc4ccccc4)CC3)ncnc12 | > 20 µM
CNc1nc(NCc2ccc(S(N)(=O)=O)cc2)c2cnn(C)c2n1 | 0.1 to 1 µM
Cc1cc(S(N)(=O)=O)ccc1CNc1ncnc2c1cnn2C | 1 to 20 µM
c1ccc(-c2csc3nc(-c4ccccn4)nc(NCc4cccs4)c23)cc1 | 1 to 20 µM
COc1ccc(CCCNC2CCN(c3ncnc4c(C)csc34)CC2)cc1 | > 20 µM
Cc1cc(CNc2ccnc3c2cnn3C)ccc1S(N)(=O)=O | 1 to 20 µM
Cc1csc2c(N3CCC(NC(=O)COc4ccc(F)cc4)CC3)ncnc12 | > 20 µM
Cn1ncc2c(NCc3ccc(S(N)(=O)=O)c(F)c3)ccnc21 | 0.1 to 1 µM
CCN(CCO)c1nc(NCc2ccc(S(N)(=O)=O)cc2)c2c(-c3ccccc3)csc2n1 | 0.1 to 1 µM
Cn1nc(-c2ccccc2)c2c(NCc3ccc(S(N)(=O)=O)cc3)ncnc21 | < 0.1 µM
Cn1cnc2c(NCc3ccc(S(N)(=O)=O)cc3)ncnc21 | 1 to 20 µM
Cn1nc(Br)c2c(NCc3ccc(S(N)(=O)=O)cc3)nc(N3CCCCC3)nc21 | < 0.1 µM
Fc1ccc(CCCNC2CCN(c3ncnc4c(-c5ccccc5)csc34)CC2)cc1 | > 20 µM
Cc1csc2c(N3CCC(NCCCc4ccncc4)C3)ncnc12 (stereo not drawn) | > 20 µM

Where do these numbers come from? They come from patent US12643910B2.
